Origin of values: PubChem BioAssay (NCI)

# Test system: SN12C renal
# TEST_METHOD_NOTES: NCI tumour cell line growth inhibition, 48 h
So I've got a bunch of compounds here, and I need their TGI values.

Example compounds with recorded TGI:
COMPOUND	OBSERVED_RESULT
Nc1ccc(S(=O)(=O)Nc2nc3ccccc3nc2N2CCCCCC2)cc1	44.9 µM
CC1(C)CC(=O)C2(CC(CSc3ccccc3)C(CS(=O)(=O)c3ccccc3)C2)C(=O)C1 (stereo unspecified)	> 100 µM
O=c1[nH]n(Cc2ccccc2)c2ccc([N+](=O)[O-])cc12	> 100 µM
c1cncc(CNCc2cccnc2)c1	> 100 µM
Cc1cc(C)c2c(c1)C(=O)/C(=C/c1ccccc1C(=O)O)C2	> 100 µM
C=CCOn1c(C=C)nc2ccc(C)cc21	33.4 µM

Please go through the list and note TGI for each compound.
1. COc1ccc(C(=O)NNc2nc(Cl)nc(N3CCN(C(c4ccccc4)c4ccccc4)CC3)n2)cc1
2. O=[N+]([O-])c1cccc(N=Nc2c(O)c(S(=O)(=O)O)cc3cc(S(=O)(=O)O)ccc23)c1
3. Cc1nc2ccc(NC(=O)CCNC(=O)CCCc3ccc(CC(C(=O)O)C(=O)O)cc3)cc2s1
4. CN=C(/N=c1\ssc(=NC)n1C)N(C)C
5. C1CC2CN(CCCN3CCOCC3)C(C1)O2 (stereo unspecified)

## Output
3.19 µM
> 100 µM
> 100 µM
> 100 µM
> 100 µM
